Reference source for all entries: paper PMC11162469

Would you mind telling me the reported % Max Response, INSL3 (EC80)-stimulated cAMP in HEK293 stably expressing rat RXFP2 of each entry?
STUDY TARGET: rat relaxin family peptide receptor 2 (RXFP2) (rat) (UniProt Q5ECL0)
Sequence (Q5ECL0 entry or part of it): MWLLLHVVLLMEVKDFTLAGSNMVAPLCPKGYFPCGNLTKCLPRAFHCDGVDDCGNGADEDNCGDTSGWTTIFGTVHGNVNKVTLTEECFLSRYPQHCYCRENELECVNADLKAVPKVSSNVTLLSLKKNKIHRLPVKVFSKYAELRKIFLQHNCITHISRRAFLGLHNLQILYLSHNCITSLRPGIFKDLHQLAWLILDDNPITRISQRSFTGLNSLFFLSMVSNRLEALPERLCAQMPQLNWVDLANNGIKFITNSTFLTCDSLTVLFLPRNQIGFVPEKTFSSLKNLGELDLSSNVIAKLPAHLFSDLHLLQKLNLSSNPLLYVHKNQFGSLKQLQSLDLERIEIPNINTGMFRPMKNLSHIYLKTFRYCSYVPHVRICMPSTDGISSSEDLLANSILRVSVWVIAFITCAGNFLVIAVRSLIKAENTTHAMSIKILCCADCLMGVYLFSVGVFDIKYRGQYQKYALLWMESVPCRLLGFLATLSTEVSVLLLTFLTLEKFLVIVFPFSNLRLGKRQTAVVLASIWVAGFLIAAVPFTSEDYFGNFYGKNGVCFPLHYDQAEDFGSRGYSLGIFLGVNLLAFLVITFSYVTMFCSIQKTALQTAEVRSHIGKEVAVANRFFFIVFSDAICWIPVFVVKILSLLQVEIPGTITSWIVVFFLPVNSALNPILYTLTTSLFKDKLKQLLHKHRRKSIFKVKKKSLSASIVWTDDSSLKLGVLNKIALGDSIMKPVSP

Example results:
BINDER: RXFP2 mAb 4H2 (antibody, V domains shown) VH: QVQLRQSGPSLVQPSQSLSITCTVSGFSLTNYGVHWVRQSPGKGLEWLGVIWRGGNTDHNAAFMSRLSITKDNSESQVFFKMNSLQVDDTAIYYCAKAEGYYALDYWGQGTSVTVYS VL: DIQMTQSPASLSVSVGETVTITCRASENIYSNLAWYQQKQGKSPQLLVYAVTNLADGVPSRFSGSGSGTQYSLKINSLQSEDFGSYYCQHFWGTPWTFGGGTKLEIK
MEASURED: 85.7%
//
BINDER: RXFP2 mAb 1G1 (antibody, V domains shown) VH: EVQLQQSGPELVKPGASVKMSCKASGYTFTDYNMHWVKQKPGQGLEWIGYINPYNDGTEYNEKFKGKATLTSDKSSSTAYMDLSSLTSEDSAVYYCARGLWFAMNYWGQGTSVTVSS VL: DIQMTQSSSSFSVSLGDRVTITCKASEDIYNRLAWYQQKPGNTPRLLISGATILETGVPSRFSGSGSGKDYTLSIISLQTEDVATYYCQQYWIIPPTFGGGTKLEIK
MEASURED: 87.2%

--- query ---
Entry under review: RXFP2 mAb 1F2 (antibody, V domains shown) VH: QVQLKQSGPGLVQPSQSLSITCTVSGFSLTAYGVNWVRQSPGKGLEWLGVIWSGGNTDYNAPFISRLSITKDNSKSQVFFKMNSLEADDTAIYYCARAKGYYAMDYWGQGTSVTVSS VL: DIQMTQSPASLSVSVGESVTITCRATENIYSNLVWYQQKQGQSPQLLVYAVTSLADGVPSRFSGSGSGTQYSLKINSLQSEDFGTYYCQHFWGTPYTFGGGTKLEIK . Reported % Max Response, INSL3 (EC80)-stimulated cAMP in HEK293 stably expressing rat RXFP2?
76.1%
